Consider the following compounds and their measured pEC50 readings.
molecular target: 5-HT2A receptor (Homo sapiens); construct: host or cells: HEK293; test: FLIPR Ca2+ flux functional assay, 5-HT2A; type: cell-based; conditions: agonist activity, Ca2+ flux, HEK293 cells; read-out: 5-HT2A EC50
Sequence (P28223 whole entry): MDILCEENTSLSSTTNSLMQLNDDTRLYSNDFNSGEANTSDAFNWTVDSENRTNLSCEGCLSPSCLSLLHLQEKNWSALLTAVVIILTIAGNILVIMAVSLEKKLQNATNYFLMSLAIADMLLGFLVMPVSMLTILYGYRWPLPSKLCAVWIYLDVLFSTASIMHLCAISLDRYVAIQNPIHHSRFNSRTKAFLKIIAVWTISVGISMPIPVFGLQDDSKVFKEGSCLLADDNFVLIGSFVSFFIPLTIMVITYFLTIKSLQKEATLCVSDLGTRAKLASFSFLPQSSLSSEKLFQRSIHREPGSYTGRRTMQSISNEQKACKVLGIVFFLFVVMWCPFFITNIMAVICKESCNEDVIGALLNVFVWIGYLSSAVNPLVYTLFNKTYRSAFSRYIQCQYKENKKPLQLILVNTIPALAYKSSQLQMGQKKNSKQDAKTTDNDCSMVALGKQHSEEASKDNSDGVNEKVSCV
pEC50: −log10 of the molar value.

compound: COc1cc(F)cc2[nH]cc(CCN(C(C)C)C(C)C)c12 [Example P-100]
pEC50: 7.29

compound: CCN(C)CCc1c[nH]c2ccc(C)c(OC)c12 [Example P-59]
pEC50: 7.46

compound: CCCN(CCC)CCc1c[nH]c2ccc(C)c(O)c12 [Example P-68]
pEC50: 6.83

compound: CCN(CC)CCc1c[nH]c2c(F)ccc(OC)c12 [Example P-104]
pEC50: 7.55

compound: COc1c(C)ccc2[nH]cc(CCN(C)C(C)C)c12 [Example P-60]
pEC50: 7.11

compound: CCN(CCc1c[nH]c2cc(F)cc(OC)c12)C(C)C [Example P-99]
pEC50: 7.51

compound: CCN(CCc1c[nH]c2ccc(OC)c(C)c12)C(C)C [Example P-40]
pEC50: 6.05
